Hello, the source for this data is patent US9399636B2, in case you need it.

- measured target: DLK (Homo sapiens, UniProt Q12852)
- Construct: N-terminally GST-tagged DLK (catalytic domain amino acid 1-520) (Carna Bioscience); GST (N)
- experiment summary: DLK TR-FRET assay
- conditions used: 5 nM GST-tagged DLK (catalytic domain amino acid 1-520), 40 nM HIS-tagged MKK4 K131M substrate, 30 μM ATP, 60 minutes
- Procedure: DLK TR-FRET assay: DLK kinase reactions (20 μL) containing 5 nM N-terminally GST-tagged DLK (catalytic domain amino acid 1-520) (Carna Bioscience), 40 nM N-terminally HIS-tagged MKK4 K131M substrate, and 30 μM ATP in kinase reaction buffer (50 mM HEPES, pH 7.5, 0.01% Triton X-100, 0.01% Bovine γ-Globulins, 2 mM DTT, 10 mM MgCl2 and 1 mM EGTA), and testing compound 1:3 serial diluted starting at 20 uM were incubated at ambient temperature for 60 minutes in 384 well OptiPlate (Perkin Elmer). […]

molecule	Ki
Cc1cc(C2CCN(CC(F)(F)F)CC2)cc(Nc2cc(C#N)ccn2)n1	150 nM
N#CC1(c2cc(Nc3cc(C(F)F)ccn3)nc(N3CC(F)C3)c2)CCOCC1	8.9 nM
N#Cc1ccnc(Nc2cc(C3CCOCC3)cc(N3CCC(F)(F)C3)n2)c1	0.88 nM
N#CC1(c2cc(Nc3cc(C(F)F)ccn3)nc(N3CCC3)c2)CCOCC1	24 nM
Cc1ccc(Nc2cc(C3CCN(C(=O)C4CCCCC4)CC3)ccn2)nc1	3600 nM
N#Cc1ccnc(Nc2cc(C3(C#N)CCOCC3)cc(N3CC4CC4C3)n2)c1 (stereo not drawn)	0.4 nM
CC(C)(C)OC(=O)N1CC(c2cc(Cl)nc(Nc3cc(C(F)F)ccn3)c2)C1	48 nM
CC(=O)N1CCC(c2cc(Nc3cc(C(F)(F)F)ccn3)nc(N3CCC[C@H]3C)c2)CC1	2 nM
FC1(F)CCN(c2cc(C3CN(C4COC4)C3)cc(Nc3cc(C(F)(F)F)ccn3)n2)C1	0.94 nM
N#Cc1ccnc(Nc2cc(C3(C#N)CCNCC3)cc(N3CCC(F)(F)C3)n2)c1	0.17 nM
FC(F)c1ccnc(Nc2cc(C3CCN(C4COC4)CC3)cc(N3CCC3)n2)c1	2.4 nM
N#Cc1ccnc(Nc2cc(C3CCOCC3)cc(Cl)n2)c1	3.1 nM
FC(F)c1ccnc(Nc2cc(C3CCN(C4COC4)CC3)cc(C3CC3)n2)c1	0.84 nM
CC(=O)N1CCC(c2cc(Nc3cc(C)ccn3)nc(-c3cnn(C)c3)c2)CC1	30 nM
N#Cc1ccnc(Nc2cc(C3CCN(C4COC4)CC3)cc(N3CCC[C@@H]3C(F)(F)F)n2)c1	1.8 nM
COc1cc(C2CCN(C(C)=O)CC2)cc(Nc2cc(C#N)ccn2)n1	12 nM
C[C@@H]1CCCN1c1cc(C2CCN(C3COC3)CC2)cc(Nc2cc(C#N)ccn2)n1	0.2 nM
Cc1cc(C2=CCOCC2)cc(Nc2cc(C#N)ccn2)n1	220 nM

----------
- measured target: DLK (Homo sapiens, UniProt Q12852)
- Construct: N-terminally GST-tagged DLK (catalytic domain amino acid 1-520) (Carna Bioscience); GST (N)
- Sequence (Q12852 1-520): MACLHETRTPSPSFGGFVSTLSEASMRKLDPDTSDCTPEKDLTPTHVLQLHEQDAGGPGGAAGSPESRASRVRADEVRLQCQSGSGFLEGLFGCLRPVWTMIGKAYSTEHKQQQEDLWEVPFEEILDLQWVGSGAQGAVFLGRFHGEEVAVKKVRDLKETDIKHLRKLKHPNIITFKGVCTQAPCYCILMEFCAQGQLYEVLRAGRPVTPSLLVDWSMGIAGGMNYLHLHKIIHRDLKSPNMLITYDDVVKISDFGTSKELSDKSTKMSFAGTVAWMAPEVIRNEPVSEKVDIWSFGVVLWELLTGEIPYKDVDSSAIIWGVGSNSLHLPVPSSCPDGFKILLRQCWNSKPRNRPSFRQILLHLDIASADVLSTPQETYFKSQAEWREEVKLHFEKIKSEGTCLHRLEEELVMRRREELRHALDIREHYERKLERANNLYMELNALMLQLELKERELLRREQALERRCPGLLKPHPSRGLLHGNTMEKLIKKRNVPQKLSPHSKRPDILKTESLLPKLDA
- experiment summary: DLK TR-FRET assay
- conditions used: 5 nM GST-tagged DLK (catalytic domain amino acid 1-520), 40 nM HIS-tagged MKK4 K131M substrate, 30 μM ATP, 60 minutes
- Method: DLK TR-FRET assay: DLK kinase reactions (20 μL) containing 5 nM N-terminally GST-tagged DLK (catalytic domain amino acid 1-520) (Carna Bioscience), 40 nM N-terminally HIS-tagged MKK4 K131M substrate, and 30 μM ATP in kinase reaction buffer (50 mM HEPES, pH 7.5, 0.01% Triton X-100, 0.01% Bovine γ-Globulins, 2 mM DTT, 10 mM MgCl2 and 1 mM EGTA), and testing compound 1:3 serial diluted starting at 20 uM were incubated at ambient temperature for 60 minutes in 384 well OptiPlate (Perkin Elmer). […]
pKi: −log10 of the molar value.
Note to self: values exactly at 9 are yes (1). So pKi at or above 9 is yes (1), below is no (0).

compound	class
COC1CCN(c2cc(C3CCN(C4COC4)CC3)cc(Nc3cc(C#N)ccn3)n2)C1 (stereo not drawn)	no (0)
FC(F)(F)c1ccnc(Nc2cc(C3CCN(C4COC4)CC3)ccn2)c1	no (0)
Cn1cc(-c2cc(C3CCOCC3)cc(Nc3cc(C(F)(F)F)ccn3)n2)cn1	yes (1)
FC(F)c1ccnc(Nc2cc(C3CCN(C4COC4)CC3)cc(Cl)n2)c1	no (0)
N#Cc1ccnc(Nc2cc(C3CCN(C4COC4)CC3)cc(N3CC(F)(F)C3)n2)c1	no (0)
N#Cc1ccnc(Nc2cc(C3CCN(C4COC4)CC3)cc(N3CC4CC3C4)n2)c1	no (0)
C[C@@H]1CCCN1c1cc(C2CCOCC2)cc(Nc2cc(C#N)ccn2)n1	yes (1)
N#Cc1ccnc(Nc2cc(C3(C#N)CCNCC3)cc(N3CCC3)n2)c1	no (0)
CC(=O)N1CCC(c2cc(Nc3cc(C#N)ccn3)nc(N3CCC[C@H]3C)c2)CC1	yes (1)
Cc1ccnc(Nc2cc(C3CCN(C(=O)[C@@H]4CCCCN4)CC3)ccn2)c1	no (0)
N#CC1(c2cc(Nc3cc(C(F)F)ccn3)nc(N3CC4CC4C3)c2)CCOCC1 (stereo not drawn)	no (0)
N#Cc1ccnc(Nc2cc(C3CCN(C4COC4)CC3)cc(N3CC4(CCOC4)C3)n2)c1	no (0)
N#CC1(c2cc(Nc3cc(C(F)(F)F)ccn3)nc(N3CC(F)C3)c2)CCNCC1	yes (1)
N#Cc1ccnc(Nc2cc(C3CN(C4COC4)C3)cc(Cl)n2)c1	no (0)
N#Cc1ccnc(Nc2cc(C3CCN(C4COC4)CC3)cc(N3CCCC3=O)n2)c1	no (0)
Cc1cc(C2CCNCC2)cc(Nc2cc(C#N)ccn2)n1	no (0)
